# MEASURED_TARGET: P. falciparum apicoplast DNA polymerase (Pf-apPOL) (Plasmodium falciparum, UniProt Q8ILY1)
# Sequence (Q8ILY1 entry or part of it): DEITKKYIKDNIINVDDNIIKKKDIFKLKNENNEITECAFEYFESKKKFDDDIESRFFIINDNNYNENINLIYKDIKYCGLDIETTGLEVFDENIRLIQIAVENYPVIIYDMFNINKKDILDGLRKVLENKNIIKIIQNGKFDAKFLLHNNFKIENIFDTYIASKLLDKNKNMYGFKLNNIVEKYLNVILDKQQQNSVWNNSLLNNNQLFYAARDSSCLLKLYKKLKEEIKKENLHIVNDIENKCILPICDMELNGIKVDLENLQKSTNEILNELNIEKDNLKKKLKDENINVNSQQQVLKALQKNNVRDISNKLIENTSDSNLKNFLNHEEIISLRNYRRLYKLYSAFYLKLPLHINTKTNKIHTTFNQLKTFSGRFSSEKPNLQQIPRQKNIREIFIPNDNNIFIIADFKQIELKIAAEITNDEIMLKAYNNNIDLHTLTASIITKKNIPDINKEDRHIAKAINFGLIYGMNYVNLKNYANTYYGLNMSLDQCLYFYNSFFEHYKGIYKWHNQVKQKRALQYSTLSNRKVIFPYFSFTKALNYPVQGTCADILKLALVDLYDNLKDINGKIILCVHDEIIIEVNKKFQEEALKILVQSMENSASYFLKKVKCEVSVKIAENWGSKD
# PROTOCOL_DETAILS: Fluorescence-based high-throughput DNA polymerase assay (molecular beacon), primary screen and dose-response
# Type: biochemical
# MEASUREMENT_PARAMETERS: DRC-2, 40', concentration 20
# Excerpt: The HT assay employs a molecular beacon, a stem-loop DNA template with a Cy3 dye and the Black Hole Quencher on the 3′ and 5′ ends of the DNA, respectively. Pf-apPOL concentration is based on a calculated absorptivity of ε280 = 56750 M^−1 cm^−1. […] To identify apPOL inhibitors we utilised our previously developed high-throughput DNA polymerase assay. […] The assay accurately recapitulates the kinetic behaviour of apPOL, as measured through more conventional low-throughput gel-based assays. […]
VALUE_TYPE: % inhibition Apol 40' (%)
Enter your answer as a number in %; do not include the unit.

O=C(Nc1ncc([N+](=O)[O-])s1)c1ccc2c(c1)C(=O)N(N1C(=O)c3ccccc3C1=O)C2=O; 40

% inhibition Apol 40' lookup needed for `O=[N+]([O-])c1cc2c(cc1CN1CCCCCC1)OCO2` , thanks. 29

Given the entry `COc1ccc(C(=O)Nc2cccc(-c3nc4ncccc4o3)c2)cc1[N+](=O)[O-]` , report its measured % inhibition Apol 40'. 1.88

###

# MEASURED_TARGET: P. falciparum apicoplast DNA polymerase (Pf-apPOL) (Plasmodium falciparum, UniProt Q8ILY1)
# PROTOCOL_DETAILS: Fluorescence-based high-throughput DNA polymerase assay (molecular beacon), primary screen and dose-response
# Format: biochemical
# MEASUREMENT_PARAMETERS: primary screen value, head "DNA Pol", unit not given; 90 min, 10 µM
Here, each record is paired with measured DNA Pol data.
Provide a numeric answer; units are not to be included.

Here is how some compounds turned out for DNA Pol.
O=C(Cn1ccc2c(=O)[nH]ccc21)Nc1ccc(Cl)cc1 [Molecule 36, O=C(Cn1ccc2c1cc[nH]c2=O)Nc1ccc(cc1)Cl]; 46
CN(C)C1C(c2ccccc2)=C(c2ccccc2)SC(c2ccccc2)C1[N+](=O)[O-] (centres unmarked); 78

Turning now to a further compound:
Identify the measured DNA Pol of O=C(Cn1ccc2c(=O)[nH]ccc21)Nc1cccc(Cl)c1 [Molecule 23, O=C(Cn1ccc2c1cc[nH]c2=O)Nc1cccc(c1)Cl] for P. falciparum apicoplast DNA polymerase (Pf-apPOL) (Plasmodium falciparum, UniProt Q8ILY1). 79

###

Recorded % inhibition Apol 90' for the following compounds
# MEASURED_TARGET: P. falciparum apicoplast DNA polymerase (Pf-apPOL) (Plasmodium falciparum)
# PROTOCOL_DETAILS: Fluorescence-based high-throughput DNA polymerase assay (molecular beacon), primary screen and dose-response
# Type: biochemical
# MEASUREMENT_PARAMETERS: DRC-1; 90'; concentration 10
Returns: string containing the numeric result and its unit.

Cc1cc(C)cc(-n2nc3c(c2NC(=O)c2ccco2)CSC3)c1; 43.5557%

The record that follows has no % inhibition Apol 90' shown yet.
Which % inhibition Apol 90' is listed for COc1ccc2c(c1)C(c1ccccc1OC)CC(=O)O2 (stereo not drawn) ? 21.9297%

###

# MEASURED_TARGET: UniProt:Q8ILY1
# PROTOCOL_DETAILS: Fluorescence-based high-throughput DNA polymerase assay (molecular beacon), primary screen and dose-response
# Format: biochemical
# MEASUREMENT_PARAMETERS: DRC-1; 90'; concentration 10
# Source text: The HT assay employs a molecular beacon, a stem-loop DNA template with a Cy3 dye and the Black Hole Quencher on the 3′ and 5′ ends of the DNA, respectively. Pf-apPOL concentration is based on a calculated absorptivity of ε280 = 56750 M^−1 cm^−1. […] To identify apPOL inhibitors we utilised our previously developed high-throughput DNA polymerase assay. […] The assay accurately recapitulates the kinetic behaviour of apPOL, as measured through more conventional low-throughput gel-based assays. […]
VALUE_TYPE: % inhibition Apol 90' (%)
Write it as a number; the unit % goes unstated.

The examples below pair each entry with its known result.
O=C(Nc1nnc(-c2ccno2)o1)c1ccc2c(c1)OCO2; 0.8301
NS(=O)(=O)c1ccc(NC(=O)c2ccc(N3C(=O)CCC3=O)cc2)cc1; 19.6888
O=C(c1c[nH]c2ncccc12)N1CCCC1 [Molecule 63, O=C(c1c[nH]c2c1cccn2)N1CCCC1]; 21.9015
O=C(CSc1nnc(-c2ccncc2)[nH]1)c1ccc(O)c(O)c1; 80.3522
CCC(C)NC(=O)c1cc(NC(C)=O)cc2nc(C)ccc12 (centres unmarked); 15.6061

Shifting focus to the compound that follows.
Name the reported % inhibition Apol 90' value associated with the compound `COc1ccc(C(=O)Nc2cccc(-c3nc4ncccc4o3)c2)cc1[N+](=O)[O-]` 26.4412
